Cited source for all entries: patent US20060252823A1

# reported melting point; entries follow

O=C(Nc1ccc2c(Cl)c(OCCBr)oc(=O)c2c1)c1ccccc1: 214 to 216 °C

Suppose we examine the molecule O=c1oc(OCCCBr)cc2ccc([N+](=O)[O-])cc12 [Compound 10b, 3-(3-Bromopropoxy)-7-nitroisocoumarin] ; what melting point value has been reported?
112 to 113 °C

"O=c1oc(OCCBr)c(Cl)c2ccccc12" ?
81 to 82 °C

Moving on to "O=c1oc(OCCCBr)c(Cl)c2ccccc12"
95 to 97 °C

====

Biological target: Human urokinase (Homo sapiens)
Counter-ions that a name gives are not always drawn.
QUANTITY: Ki (nM)
Just the number in nM, nothing appended.

N=C(N)SCCOc1oc(=O)c2ccccc2c1Cl [Compound 5c, hydrobromide]: 27

Now, please, on to the next compound.
Could you tell me which Ki is on file for O=c1oc(OCCCBr)c(Cl)c2ccc([N+](=O)[O-])cc12 [Compound 4b] ?
1200

====

Target: Human urokinase (Homo sapiens)
Construct: purchased Sigma/Aldrich
Assay: Kinetics of human urokinase inhibition with Spectrozyme UK substrate
Format: biochemical
Conditions: qualitative comparison of dissociation constants (Table 1)
QUANTITY: binding to uPA compared to unsubstituted counterparts

O=c1oc(OCCBr)c(Cl)c2ccc([N+](=O)[O-])cc12: improved binding
O=c1oc(OCCCBr)c(Cl)c2ccc([N+](=O)[O-])cc12: improved binding

====

Measured melting point, listed per entry for reference.

// below: answered compounds
Nc1ccc2c(Cl)c(OCCCBr)oc(=O)c2c1 [Compound 6b]: 106 to 107 °C
O=c1oc(OCCCCBr)c(Cl)c2ccccc12 [Compound 4e, 3-(4-Bromobutoxy)4-chloroisocoumarin]: 75 to 77 °C
Nc1ccc2c(Cl)c(OCCBr)oc(=O)c2c1 [Compound 6a]: 134 to 136 °C
O=c1oc(OCCCBr)c(Cl)c2ccc([N+](=O)[O-])cc12 [Compound 4b]: 131 to 134 °C
Br.N=C(S)NCCCCOc1oc(=O)c2ccccc2c1Cl [Compound 5e]: 159 to 161 °C

With those in mind, consider the next compound.
# query: melting point of entry Br.NC(S)=NCCCOc1oc(=O)c2cc(NC(=O)c3ccccc3)ccc2c1Cl [Compound 9b]
203 to 204 °C

====

QUANTITY: melting point

Nc1ccc2cc(OCCBr)oc(=O)c2c1: > 280 °C

What does the record list as melting point for "Br.N=C(S)NCCOc1oc(=O)c2ccccc2c1Cl" ?
168 to 170 °C

Another: "O=c1oc(OCCBr)c(Cl)c2ccc([N+](=O)[O-])cc12"
126 to 128 °C

# repeat for "Br.N=C(S)NCCOc1oc(=O)c2cc(NC(=O)c3ccccc3)ccc2c1Cl"
173 to 175 °C

====

Overview of reported melting point across a group of compounds:

Worked examples, 3 compounds total:
O=c1oc(OCCBr)cc2ccc([N+](=O)[O-])cc12 [Compound 10a, 3-(2-Bromoethoxy)-7-nitroisocoumarin]: 95 to 97 °C
Br.NC(S)=NCCCOc1oc(=O)c2ccccc2c1Cl [Compound 5d]: 159 to 163 °C
O=C(Nc1ccc2c(Cl)c(OCCCBr)oc(=O)c2c1)c1ccccc1 [Compound 8b]: 193 to 194 °C

// next entry
Form field: reported melting point of Br.NC(S)=NCCCOc1cc2ccc(N)cc2c(=O)o1 [Compound 7b]
173 °C
